The measured values listed here are drawn from patent US6956053B2.

Molecular target: gastrin (CCK2) receptors (Rattus norvegicus, UniProt P30553)
Construct: The stomach was excised and flushed with ca. 1 ml of unbuffered physiological saline solution; from tissue; host or cells: isolated, lumen-perfused stomach of immature rats (33-50 g, ca. 21 days old)
Sequence (P30553 whole entry, the tested form may be a part): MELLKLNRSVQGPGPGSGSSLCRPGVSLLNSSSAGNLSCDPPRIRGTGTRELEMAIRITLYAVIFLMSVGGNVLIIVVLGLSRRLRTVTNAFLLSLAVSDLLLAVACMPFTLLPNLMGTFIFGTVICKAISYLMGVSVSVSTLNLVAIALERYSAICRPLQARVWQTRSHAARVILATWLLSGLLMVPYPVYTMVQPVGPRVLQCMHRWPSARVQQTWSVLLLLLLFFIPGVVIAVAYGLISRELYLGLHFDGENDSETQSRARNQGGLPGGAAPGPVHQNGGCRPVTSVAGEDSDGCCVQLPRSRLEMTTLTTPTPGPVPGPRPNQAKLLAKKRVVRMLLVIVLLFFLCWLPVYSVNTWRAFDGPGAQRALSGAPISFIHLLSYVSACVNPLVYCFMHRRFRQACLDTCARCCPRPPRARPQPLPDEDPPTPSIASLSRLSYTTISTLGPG
Assay: immature rat stomach assay, gastrin (CCK2) antagonist activity against pentagastrin-stimulated acid secretion
Type: cell-based
Details: isolated immature rat stomach, pentagastrin dose-response curves, 60 min after drug addition; read-out: Rat Stomach pKB (converted)
MEASUREMENT_LABEL: Kb (nM)

A: Cn1c(COC23CC4CC(CC(C4)C2)C3)c(C(=O)Nc2cccc(C(=O)O)c2)c(=O)n1C1CCCCC1
B: O=C(O)c1cccc(NC(=O)c2c(COC34CC5CC(CC(C5)C3)C4)nn(C3CCCCC3)c2O)c1
C: COc1c(C(=O)Nc2cccc(C(=O)O)c2)c(COC23CC4CC(CC(C4)C2)C3)nn1C1CCCCC1
D: Cc1ccccc1-n1nc(COC23CC4CC(CC(C4)C2)C3)c(C(=O)Nc2cccc(C(=O)O)c2)c1O
**Q:** sort_by: Kb; order: ascending; scope: items listed above Arrange the labels as the request states and list them.
**A:** D, B, C, A
(D: 19.1 nM, B: 30.9 nM, C: 170 nM, A: 269 nM)
